Recorded IC50 by entry
- test_target: HIV-1 protease wild type protein (Human immunodeficiency virus type 1 group M subtype B, UniProt P04585)

{"columns": ["compound", "IC50"],
 "data": [
  ["Cc1cc(-c2ccc(Cl)cc2)c(C)cc1C1=C(O)C2(CCCCCC2)OC1=O", "≤ 100 nM"],
  ["Cc1cc(-c2cccc(NC(=O)CCN)c2)c(Cl)cc1C1=C(O)[C@]2(CC[C@@H]3CCC[C@@H]3C2)OC1=O", "≤ 100 nM"],
  ["CC(=O)N1CCCC2(C1)OC(=O)C(c1cc(Cl)c(-c3cccc(S(C)(=O)=O)c3)cc1C)=C2O (stereo not drawn)", "≤ 100 nM"],
  ["C/C(=C\\C(=O)N1CCCC2(C1)OC(=O)C(c1cc(Cl)c(-c3cccc(S(C)(=O)=O)c3)cc1C)=C2O)CO (stereo not drawn)", "≤ 100 nM"],
  ["COC1CCC2(CC1)OC(=O)C(c1cc(C)c(-c3ccc(Cl)cc3)cc1C)=C2O (stereo not drawn)", "≤ 100 nM"],
  ["Cc1cc(-c2ccc(Cl)cc2)ccc1C1=C(O)C2(CCCCC2)OC1=O", "≤ 100 nM"],
  ["Cc1cc(-c2ccc([N+](=O)[O-])cc2)c(Cl)cc1C1=C(O)C2(CCC3CCCC3C2)OC1=O (stereo not drawn)", "≤ 100 nM"],
  ["Cc1cc(-c2cccc(S(C)(=O)=O)c2)c(Cl)cc1C1=C(O)C2(CCN(C(=O)N(C(C)C)C(C)C)CC2)OC1=O", "≤ 100 nM"],
  ["Cc1cc(-c2ccc([N+](=O)[O-])cc2)c(Cl)cc1C1=C(O)C2(CCCCC2)OC1=O", "≤ 100 nM"],
  ["COc1cccc(-c2cc(C)c(C3=C(O)C4(CCCCC4)OC3=O)cc2Cl)c1", "≤ 100 nM"],
  ["CCCS(=O)(=O)Nc1cccc(-c2cc(C)c(C3=C(O)C4(CCCCC4)OC3=O)cc2Cl)c1", "≤ 100 nM"],
  ["Cc1cc(-c2cccc(S(C)(=O)=O)c2)c(Cl)cc1C1=C(O)C2(CCN(C(=O)CCCc3ccccc3)CC2)OC1=O", "≤ 100 nM"],
  ["Cc1cc(-c2ccc(NC(=O)OC(C)(C)C)cc2)c(Cl)cc1C1=C(O)C2(CCCCC2)OC1=O", "≤ 100 nM"],
  ["Cc1cc(-c2cccc(S(C)(=O)=O)c2)c(Cl)cc1C1=C(O)C2(CCCN(C(=O)/C=C/c3cccnc3)C2)OC1=O (stereo not drawn)", "≤ 100 nM"],
  ["Cc1cc(-c2cccc(S(C)(=O)=O)c2)c(Cl)cc1C1=C(O)C2(CCCN(S(=O)(=O)Cc3ccccc3)C2)OC1=O (stereo not drawn)", "≤ 100 nM"]
]}

###

- test_target: HIV-1 protease wild type protein (Human immunodeficiency virus type 1 group M subtype B, UniProt P04585)
pIC50: −log10 of the molar value.
Recorded pIC50 by entry

{"columns": ["compound", "pIC50"],
 "data": [
  ["Cc1cc(-c2cc(NS(C)(=O)=O)ccc2F)c(Cl)cc1C1=C(O)C2(CCCCC2)OC1=O [Example 92]", "≥ 7.00"],
  ["CC/C=C\\C(=O)N1CCCC2(C1)OC(=O)C(c1cc(Cl)c(-c3cccc(S(C)(=O)=O)c3)cc1C)=C2O (stereo not shown) [Example 120]", "≥ 7.00"],
  ["Cc1cc(-c2cccc(C#N)c2)c(Cl)cc1C1=C(O)C2(CCCCC2)OC1=O [Example 37]", "≥ 7.00"],
  ["CCOC1CCCCC12OC(=O)C(c1cc(C)c(-c3ccc(Cl)cc3)cc1C)=C2O (stereo not shown) [Example 14]", "≥ 7.00"]
]}
